Values compiled from Sander's compilation of Henry's law constants (doi:10.1016/j.hazl.2022.100070).

- PROTOCOL: Henry solubility constant Hcp at 298.15 K (mol/(m3 Pa))
- CONDITIONS USED: reference: Abusallout et al. (2022)
Would you mind telling me the reported Henry solubility constant Hcp of each entry?
Give the figure by itself; no unit, no explanation.

What does the record list as Henry solubility constant Hcp for OCCC(F)(F)C(F)(F)C(F)(F)C(F)(F)C(F)(F)C(F)(F)C(F)(F)C(F)(F)C(F)(F)C(F)(F)F [1,1,2,2-tetrahydroperfluoro dodecanol] ? 0.00014

Likewise for C=CC(F)(F)C(F)(F)C(F)(F)C(F)(F)C(F)(F)C(F)(F)F [(perfluorohexyl)ethene] ? 0.00011

What do you have for O=S(=O)(O)CCC(F)(F)C(F)(F)C(F)(F)C(F)(F)C(F)(F)C(F)(F)F [1H,1H,2H,2H-perfluorooctane sulfonic acid] ? 0.0021
